test: chemical genetic growth profiling, strain panel (AID 1159580);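 also: tested at 20 µM; growth read once vehicle control cultures reached saturation at 30 °C; lower values mean less growth of the strain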; settings: S. cerevisiae deletion strains, growth OD, locus YKL085W, strain MDH1
Out of some 5,500 compounds screened, about 2,000 (36%) were called active. Roughly 18% stayed inconclusive and do not appear here. Rule as the data show it: active = normalized growth mostly below about 0.91 (no sharp cut-off); inconclusive = no clear call, values can overlap the other calls; inactive = mostly above about 0.92. This is one part of the list.
A correct response names exactly one class from Yes (active), No (inactive)

The following molecules have reported results that may help.
[
  {
    "molecule": "Cc1cc(C(C)(C)C)c(O)c(C(C)(C)C)c1",
    "group": "No"
  },
  {
    "molecule": "Fc1ccc(C(c2ccccc2)(c2ccccc2F)n2ccnc2)cc1 (stereo not drawn)",
    "group": "Yes"
  },
  {
    "molecule": "Nc1ccccc1C(=O)CC(N)C(=O)O (stereo not drawn)",
    "group": "No"
  },
  {
    "molecule": "NC(N)=N/N=C/c1c(Cl)cccc1Cl",
    "group": "No"
  },
  {
    "molecule": "C#C[C@]1(O)CCC2C3CCC4=C(CCC(=O)C4)C3CC[C@@]21C (stereo partly drawn)",
    "group": "No"
  }
]

Query: Please let me know the test result on file for Cc1cn([C@H]2C[C@H](N=[N+]=[N-])[C@@H](CO)O2)c(=O)[nH]c1=O .
Reply: No

Query: Please let me know the test result on file for C/C=C(/C)C(=O)O[C@@H]1[C@H](OC(C)=O)[C@@]2(CO)C(CC1(C)C)C1=CCC3[C@@]4(C)CC[C@H](O[C@@H]5O[C@H](C(=O)O)[C@@H](O[C@@H]6O[C@H](CO)[C@@H](O)[C@H](O)[C@H]6O)[C@H](O)[C@H]5O[C@@H]5O[C@H](CO)[C@@H](O)[C@H](O)[C@H]5O)[C@](C)(CO)C4CC[C@@]3(C)[C@]1(C)C[C@H]2O (stereo partly drawn) .
Reply: No

Query: Please let me know the test result on file for C/C=C1\[C@H]2C=C(C)C[C@]1(N)c1ccc(=O)[nH]c1C2 .
Reply: No

---

assay: chemical genetic growth profiling, strain panel (AID 1159580);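 also: tested at 20 µM; growth read once vehicle control cultures reached saturation at 30 °C; lower values mean less growth of the strain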; conditions: S. cerevisiae deletion strains, growth OD, locus YPR135W, strain CTF4, active compounds read low
The campaign covered roughly 5,500 compounds. About 2,000 (36%) were called active. Inconclusive results (about 18%) are left out. The list shows a part of the results.
Okay, here is how we bin by normalized growth: small value (below 0.8), mid value (0.8 to below 1), large value (1 or more)

[
  {
    "compound": "C=C1SC(=Nc2cccc(OC)c2)N(C(=O)C(c2ccccc2)C2CCCC2)C1(C)C (configuration not stated)",
    "group": "large value"
  },
  {
    "compound": "CC(OCc1ccccc1)C(NC(=O)OC(C)(C)C)C(N)=O (configuration not stated)",
    "group": "mid value"
  },
  {
    "compound": "COc1ccc(-c2n[nH]c(=S)n2-c2cccc(OC)c2)cc1",
    "group": "mid value"
  },
  {
    "compound": "CCCC(CC(=O)O)(C(=O)O)c1ccccc1 (configuration not stated)",
    "group": "large value"
  },
  {
    "compound": "S=C(NCc1cccnc1)Nc1ccccc1Cl",
    "group": "small value"
  },
  {
    "compound": "S=C(NCc1ccccc1)Nc1ccc(Cl)c(Cl)c1",
    "group": "small value"
  },
  {
    "compound": "Cc1cccc(NC(=S)NCc2ccncc2)c1",
    "group": "mid value"
  },
  {
    "compound": "CCCCCc1ccc(C(=O)O/N=C\\c2c(Cl)cccc2Cl)cc1",
    "group": "large value"
  },
  {
    "compound": "CC(C)(C)c1ccc(-c2n[nH]c(=S)n2-c2cccc(C(F)(F)F)c2)cc1",
    "group": "mid value"
  },
  {
    "compound": "Cc1cc(C2=CSC3=NCCN23)ccc1Cl",
    "group": "small value"
  }
]

Next up:
Query: Which class is correct for the following compound? O=S(=O)(CCN1CCOCC1)c1ccc(Cl)cc1
Reply: large value
